- TARGET ENTITY: T1, Fibrinogen fragment D (human, UniProt P02671 130-216; P02675 164-491; P02679 114-432, limits assumed)
- T1 construct: domain: Fragment D (or D-domain); Made by plasmin digestion of human fibrinogen and purified on GPRPAA beads; holds the C-terminal polymerization pockets without the N-terminal knobs; immobilised by amine coupling on the SPR chip; also called D-domain
- T1 sequence (looked up) 1: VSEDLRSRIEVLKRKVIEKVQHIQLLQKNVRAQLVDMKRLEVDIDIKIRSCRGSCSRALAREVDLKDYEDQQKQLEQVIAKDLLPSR
- T1 sequence (looked up) 2: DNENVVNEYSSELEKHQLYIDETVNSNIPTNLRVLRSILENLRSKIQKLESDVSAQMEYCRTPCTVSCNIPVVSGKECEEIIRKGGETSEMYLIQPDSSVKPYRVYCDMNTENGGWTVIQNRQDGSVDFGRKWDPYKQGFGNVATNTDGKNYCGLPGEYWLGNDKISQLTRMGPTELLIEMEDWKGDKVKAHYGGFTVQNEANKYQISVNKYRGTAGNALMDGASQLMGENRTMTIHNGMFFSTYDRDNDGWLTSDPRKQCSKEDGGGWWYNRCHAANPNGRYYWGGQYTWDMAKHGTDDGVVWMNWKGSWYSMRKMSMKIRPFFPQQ
- T1 sequence (looked up) 3: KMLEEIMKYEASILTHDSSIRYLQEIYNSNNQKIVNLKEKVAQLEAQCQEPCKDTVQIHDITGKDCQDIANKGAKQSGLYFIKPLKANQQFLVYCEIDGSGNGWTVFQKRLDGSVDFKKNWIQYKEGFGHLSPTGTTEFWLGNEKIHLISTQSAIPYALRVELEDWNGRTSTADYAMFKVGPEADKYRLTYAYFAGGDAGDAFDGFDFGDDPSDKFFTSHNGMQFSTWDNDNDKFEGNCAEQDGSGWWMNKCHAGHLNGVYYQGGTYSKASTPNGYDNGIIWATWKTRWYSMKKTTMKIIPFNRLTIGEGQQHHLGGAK
- MEASUREMENT NOTES: SPR, fragment D immobilised, Langmuir 1:1 model
- Description: Upon stabilization of the baseline signal, kinetic binding experiments were run in duplicate with the peptide variants as the flow analytes. […] To investigate the dynamic binding profile between the fibrinogen/fibrin holes and knob peptide variants, SPR was employed. Binding interactions were evaluated by flowing the knob peptides over an immobilized surface of fragment D (FIG. 8). […]
ASSAY READOUT: koff (s⁻¹)
Answer format: numeric, s⁻¹ implied, no suffix.

Some entries whose results are on file:
GPRPAAC (Synthetic (GenScript); kept reduced with immobilised TCEP; also called gold standard GPRP mimic; knob 'A' peptide)	0.0117
GPRVVERC (Synthetic (GenScript); also called knob 'A' peptide)	0.0234
GPRPFPAC (Synthetic (GenScript); also called knob 'A' peptide)	0.00727

[in] Looking for the measured koff of GPRPPERC (Synthetic (GenScript); also called knob 'A' peptide) , can you help?
[out] 0.00992

[in] Looking for the measured koff of GPRVVAAC (Synthetic (GenScript); also called knob 'A' peptide) , can you help?
[out] 0.0107
